The entries below are paired with their reported MIC.
Tested on: Staphylococcus epidermidis 109
Test details: Minimum inhibitory concentration, serial dilution on nutrient agar
Type: cell-based
Measurement context: Staphylococcus epidermidis, 109; nutrient agar, 37° C., 18 hours incubation; read-out: MIC
Quantity: MIC

[[record]]
molecule = "CNC[C@@H]1CC[C@@H](N)[C@@H](O[C@H]2C[C@@H](O[C@H]3O[C@H](CO)[C@@H](O)[C@H](N)[C@H]3O)[C@H](NC(=O)C(O)CN)C[C@@H]2N)O1 (stereo partly drawn)"
assay_target = "Staphylococcus epidermidis 109"
value_observed = "< 0.2 µg/mL"

[[record]]
molecule = "C[C@H]1O[C@H](O[C@@H]2C[C@H](O[C@H]3O[C@H](CN)CC[C@H]3N)[C@@H](N)C[C@H]2N)[C@H](O)[C@@H](N)[C@@H]1O"
assay_target = "Staphylococcus epidermidis 109"
value_observed = "6.25 µg/mL"

[[record]]
molecule = "CNC[C@@H]1CC[C@@H](N)[C@@H](O[C@H]2C[C@@H](O[C@H]3O[C@H](CO)[C@@H](O)[C@H](N)[C@H]3O)[C@H](NC(=O)[C@@H](O)CCN)C[C@@H]2N)O1"
assay_target = "Staphylococcus epidermidis 109"
value_observed = "< 0.2 µg/mL"

